Where do the numbers come from? From ChEMBL document CHEMBL1127172.

Target: Gastricsin (Homo sapiens, UniProt P20142)
Sequence (P20142 whole entry): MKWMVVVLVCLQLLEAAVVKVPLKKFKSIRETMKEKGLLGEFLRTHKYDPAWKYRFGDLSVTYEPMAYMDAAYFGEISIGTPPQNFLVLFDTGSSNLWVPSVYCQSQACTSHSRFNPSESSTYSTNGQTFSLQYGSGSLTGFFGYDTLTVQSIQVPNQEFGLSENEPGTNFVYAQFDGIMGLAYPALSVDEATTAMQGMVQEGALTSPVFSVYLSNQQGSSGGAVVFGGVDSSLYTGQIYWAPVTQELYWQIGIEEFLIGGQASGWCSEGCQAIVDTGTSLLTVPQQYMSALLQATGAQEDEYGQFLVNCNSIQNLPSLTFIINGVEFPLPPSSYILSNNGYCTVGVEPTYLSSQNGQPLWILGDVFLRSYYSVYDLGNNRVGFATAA
Measurement Kind: pIC50
Notebook: values listed as pIC50 are -log10 of the concentration (mol/L).

Tell me pIC50 reported for CC(=O)N[C@H](C(=O)N[C@@H](Cc1ccccc1)[C@@H](O)CN(CC1CCCCC1)NC(=O)[C@@H](NC(C)=O)C(C)C)C(C)C
6.00

---

This listing pairs compounds with measured IC50.
target: Human immunodeficiency virus type 1 protease (Human immunodeficiency virus 1, UniProt Q72874)
Your answer is read as nM, so omit the unit and give the number.

Tell me IC50 reported for CC(=O)N[C@H](C(=O)N[C@@H](Cc1ccccc1)[C@@H](O)CN(Cc1ccc(C#N)cc1)NC(=O)[C@@H](NC(C)=O)C(C)C)C(C)C
50

Tell me IC50 reported for CC(=O)N[C@H](C(=O)N[C@@H](Cc1ccccc1)[C@@H](O)CN(CC(C)C)NC(=O)[C@@H](NC(C)=O)C(C)C)C(C)C
45

Tell me IC50 reported for CC(C)[C@H](NC(=O)OCc1ccccc1)C(=O)N[C@@H](Cc1ccccc1)[C@@H](O)CN(Cc1ccc(F)cc1)NC(=O)[C@@H](NC(=O)OCc1ccccc1)C(C)C
22

Tell me IC50 reported for CC(=O)N[C@H](C(=O)N[C@@H](Cc1ccccc1)[C@@H](O)CN(Cc1ccccc1)NC(=O)[C@H](NC(C)=O)C(C)C)C(C)C
30

Tell me IC50 reported for CC(C)[C@H](NC(=O)N1CCOCC1)C(=O)N[C@@H](Cc1ccccc1)[C@@H](O)CN(Cc1ccccc1)NC(=O)[C@H](NC(=O)N1CCOCC1)C(C)C
2000

Tell me IC50 reported for CC(=O)N[C@H](C(=O)N[C@@H](Cc1ccccc1)[C@@H](O)CN(CC1CCCCC1)NC(=O)[C@@H](NC(C)=O)C(C)C)C(C)C
9

---

Lab note: pIC50 readings collected with Human immunodeficiency virus type 1 protease (Human immunodeficiency virus 1) for the following molecules.
Notebook: values listed as pIC50 are -log10 of the concentration (mol/L).

Query Smiles: CC(C)[C@H](NC(=O)OC(C)(C)C)C(=O)N[C@@H](Cc1ccccc1)[C@@H](O)CN(Cc1ccccc1)NC(=O)[C@H](NC(=O)OC(C)(C)C)C(C)C
pIC50: 4.28

Tell me pIC50 reported for CC(=O)N[C@H](C(=O)N[C@@H](Cc1ccccc1)[C@@H](O)CN(Cc1ccc(F)cc1)NC(=O)[C@@H](NC(C)=O)C(C)C)C(C)C
7.55

Tell me pIC50 reported for CC(C)[C@H](NC(=O)OCc1ccccc1)C(=O)N[C@@H](Cc1ccccc1)[C@@H](O)CN(Cc1ccccc1)NC(=O)[C@H](NC(=O)OCc1ccccc1)C(C)C
7.48

Tell me pIC50 reported for CC(C)[C@H](NC(=O)OCc1ccccc1)C(=O)N[C@@H](Cc1ccccc1)[C@@H](O)CN(Cc1ccc(C#N)cc1)NC(=O)[C@@H](NC(=O)OCc1ccccc1)C(C)C
7.62
